# Activity annotations
# Tested on: Phakopsora pachyrhizi (triazole tolerant soybeanrust strain)
# Measurement Description: Phakopsora pachyrhizi on soybean, preventive treatment
# Assay type: in vivo
# Study Conditions: solo, rate 0.5 g ai/ha; soybean leaf discs, 1 day preventive, 11 days after application
Give your result as the value with the unit written after it.

The examples below pair each entry with its known result.
Compound: CCN(C)/C=N/c1cc(Br)c(OC2Cc3ccccc3C2)nc1C
Study System: Phakopsora pachyrhizi (triazole tolerant soybeanrust strain)
Activity: 0%
--
Compound: CCN(C)/C=N/c1cc(Br)c(OC(C)c2cc(F)cc(F)c2)nc1C (centres unmarked)
Study System: Phakopsora pachyrhizi (triazole tolerant soybeanrust strain)
Activity: 1%
--
Compound: CC(C1CC1)C(O)(Cn1cncn1)c1ccc(Cl)cc1 (centres unmarked)
Study System: Phakopsora pachyrhizi (triazole tolerant soybeanrust strain)
Activity: 38%

GET /value?item= `CCN(C)/C=N/c1cc(Br)c(OC2CC=CC2)nc1C` &field=Activity returns 0%

GET /value?item= `CCN(C)/C=N/c1cc(Br)c(O[C@H]2CC[C@@H](C(C)C)CC2)nc1C` &field=Activity returns 13%
